# Test system: HN5 tumor cells
# Protocol description: Method C: Cell Growth Inhibition Assay (CellTiter-Glo), HN5
# Format: cell-based
# Assay context: Homo sapiens, 72 h, 3 days, 4-parameter fit
pIC50: −log10 of the molar value.
Property label: pIC50

Consider the reported pIC50 for these compounds:
>>> observed_result("O=C(Nc1cccc(-c2ncsc2-c2ccnc(Nc3cccc(CN4CCCC4)c3)n2)c1)c1c(F)cccc1F")
"> 7.00"
>>> observed_result("COc1ccc(Nc2nccc(-c3scnc3-c3cccc(NC(=O)c4c(F)cccc4F)c3)n2)cc1N1CCN(C)CC1")
"> 7.00"
>>> observed_result("CN(C)CCOc1ccc(Nc2nccc(-c3sc(N4CCCCC4)nc3-c3cccc(NC(=O)c4c(F)cccc4F)c3)n2)cc1Cl")
"6.00 to 7.00"
>>> observed_result("Cc1cc(-c2sc(N)nc2-c2cccc(NC(=O)c3c(F)cccc3F)c2)nc(Nc2cccc(F)c2)n1")
"< 6.00"

Turning now to a further record.
Query :: Param item = CN(C)CCOc1ccc(Nc2nccc(-c3sc(N)nc3-c3cccc(NC(=O)c4c(F)cccc4F)c3)n2)cc1Cl ; retrieve measured pIC50.
Result :: > 7.00

Data origin: patent US20110098296A1
